- test-target: human PCSK9 / human LDLR EGFa domain interaction (Homo sapiens (Human))
- protocol-details: TR-FRET assay of inhibition of the PCSK9-LDLR protein-protein interaction
- Format: binding
- condition-set: TR-FRET, 20 nM human PCSK9, 20 nM human LDLR EGFa domain, 2 hours room temperature; read-out: IC50
Starred links: 1 amine or outer side, 2 acyl side, 3 side chain; linkers in the order of their positions; H or OH if unused. Positions of bridges follow the written chain, without caps; N, C: chain ends. Non-standard residues stand in square brackets, D forms with d. Residues, ends and D or L forms follow the SMILES beside them. Phe(3-CH2NH2) = O=C([C@H](Cc1cccc(CN[*:3])c1)N[*:1])[*:2]; Phe(4-COOH) = N[C@@H](Cc1ccc(C(=O)O)cc1)C(=O)O; Trp(5-F) = N[C@@H](Cc1c[nH]c2ccc(F)cc12)C(=O)O; Trp(6-F) = N[C@@H](Cc1c[nH]c2cc(F)ccc12)C(=O)O; X3 = O=C(CCSCc1cc(F)cc(CSCCN[*:1])c1)[*:2]; Pro(cis-4-F) = O=C(O)[C@@H]1C[C@H](F)CN1; Dip = N[C@H](C(=O)O)C(c1ccccc1)c1ccccc1; X4 = O=C(CCSCc1cccc(CSCCN[*:1])c1)[*:2]; d(aThr) = C[C@@H](O)[C@@H](N)C(=O)O; Aad = N[C@@H](CCCC(=O)O)C(=O)O; aThr = C[C@H](O)[C@H](N)C(=O)O; αMeP = C[C@@]1(C(=O)O)CCCN1; Ahx = NCCCCCC(=O)O
For each of the molecules below, state its IC50.

molecule	IC50
COc1ccc(C[C@@H]2NC(=O)[C@@H]([C@@H](C)O)NC(=O)[C@H](CCCC(=O)O)NC(=O)[C@H](Cc3c[nH]c4ccc(F)cc34)NC(=O)[C@H](Cc3cccc(CN)c3)NC(=O)[C@@H](C)NC(=O)[C@H](C)NC(=O)CCSCc3cccc(c3)CSCCNC(=O)[C@]3(C)CCCN3C2=O)cc1 [Compound 346] (cyclo(A[dA][Phe(3-CH2NH2)][Trp(5-F)][Aad][d(aThr)]Y(Me)[αMeP][X4]))	0.1 to 100 nM
NCCCC[C@@H]1NC(=O)CCCn2cc(nn2)CCC[C@@H](C(N)=O)NC(=O)[C@@H]2CCCN2C(=O)[C@H](Cc2ccc(O)cc2)NC(=O)[C@H](Cc2c[nH]cn2)NC(=O)[C@H](CC(=O)O)NC(=O)[C@H](Cc2c[nH]c3ccc(F)cc23)NC(=O)[C@H](Cc2c[nH]c3ccc(F)cc23)NC(=O)CNC1=O	0.1 to 100 nM
COc1ccc(C[C@@H]2NC(=O)[C@H]([C@H](C)O)NC(=O)[C@@H]3C[C@H](F)CN3C(=O)[C@H](Cc3c[nH]c4cc(F)ccc34)NC(=O)[C@H](Cc3c[nH]c4ccc(F)cc34)NC(=O)[C@@H](C)NC(=O)CCCCCNC(=O)c3ccc(cc3)C[C@@H](C(N)=O)NC(=O)[C@]3(C)CCCN3C2=O)cc1 [Compound 057] ([Ahx][dA][Trp(5-F)][Trp(6-F)][Pro(cis-4-F)][aThr]Y(Me)[αMeP][Phe(4-COOH)]-NH2; lactam N-9)	1000 to 12100 nM

I'm hoping you can list IC50 for every molecule here, please.
1. C[C@H]1NC(=O)[C@H](CCCCN)NC(=O)CCSCc2cc(F)cc(c2)CSCCNC(=O)[C@]2(C)CCCN2C(=O)[C@H](Cc2ccc(O)cc2)NC(=O)[C@H](Cc2cnc[nH]2)NC(=O)[C@H](CC(=O)O)NC(=O)[C@H](Cc2c[nH]c3ccc(F)cc23)NC(=O)[C@H](Cc2c[nH]c3ccc(F)cc23)NC1=O [Compound 289] (cyclo(DHY[αMeP][X3]K[dA][Trp(5-F)][Trp(5-F)]))
2. C[C@H]1NC(=O)[C@H](CCCCN)NC(=O)CCSCc2cccc(c2)CSCCNC(=O)[C@]2(C)CCCN2C(=O)[C@H](C(c2ccccc2)c2ccccc2)NC(=O)[C@H](Cc2cnc[nH]2)NC(=O)[C@H](CC(=O)O)NC(=O)[C@H](Cc2c[nH]c3ccc(F)cc23)NC(=O)[C@H](Cc2c[nH]c3ccc(F)cc23)NC1=O [Compound 406] (cyclo(DH[Dip][αMeP][X4]K[dA][Trp(5-F)][Trp(5-F)]))

21000 to 50000 nM
0.1 to 100 nM

----------
- test-target: human PCSK9 / human LDLR EGFa domain interaction (Homo sapiens (Human), UniProt Q8NBP7)
- Sequence (Q8NBP7 153-692): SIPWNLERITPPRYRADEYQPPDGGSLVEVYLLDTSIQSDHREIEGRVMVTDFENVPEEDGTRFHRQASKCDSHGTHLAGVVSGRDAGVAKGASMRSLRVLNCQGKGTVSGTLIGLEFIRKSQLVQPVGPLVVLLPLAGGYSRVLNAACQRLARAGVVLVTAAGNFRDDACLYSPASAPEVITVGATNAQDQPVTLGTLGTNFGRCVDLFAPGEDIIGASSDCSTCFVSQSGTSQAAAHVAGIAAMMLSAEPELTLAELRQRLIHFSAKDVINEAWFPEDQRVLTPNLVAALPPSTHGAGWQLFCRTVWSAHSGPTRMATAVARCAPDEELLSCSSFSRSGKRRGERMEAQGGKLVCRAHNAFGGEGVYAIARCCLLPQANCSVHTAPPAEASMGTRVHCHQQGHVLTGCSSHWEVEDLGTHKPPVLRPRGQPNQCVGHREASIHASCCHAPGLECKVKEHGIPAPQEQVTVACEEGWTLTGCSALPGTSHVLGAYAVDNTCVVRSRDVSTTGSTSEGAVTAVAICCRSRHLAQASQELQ
- Sequence (Q8NBP7 31-152 partner): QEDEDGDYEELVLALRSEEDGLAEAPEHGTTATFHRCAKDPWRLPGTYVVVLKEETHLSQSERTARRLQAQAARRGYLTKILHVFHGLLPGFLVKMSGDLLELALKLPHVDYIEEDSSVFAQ
- protocol-details: TR-FRET assay of inhibition of the PCSK9-LDLR protein-protein interaction
- Format: binding
- condition-set: TR-FRET, 20 nM human PCSK9, 20 nM human LDLR EGFa domain, 2 hours room temperature; read-out: IC50
pIC50: −log10 of the molar value. Starred links: 1 amine or outer side, 2 acyl side, 3 side chain; linkers in the order of their positions; H or OH if unused. Positions of bridges follow the written chain, without caps; N, C: chain ends. Non-standard residues stand in square brackets, D forms with d. Residues, ends and D or L forms follow the SMILES beside them. X24 = O=C(CCCCSc1c(F)c(F)c(SCCN[*:1])c(F)c1F)[*:2]; Trp(5-F) = N[C@@H](Cc1c[nH]c2ccc(F)cc12)C(=O)O; Phe(4-CH2NH2) = NCc1ccc(C[C@H](N)C(=O)O)cc1; X19 = O=C(CCCCc1ccc(CCCCN[*:1])cc1)[*:2]; Pro(4S-NH2) = N[C@@H]1CN[C@H](C(=O)O)C1; Orn(N3) = [N-]=[N+]=NCCC[C@H](N)C(=O)O; mXylylene = c1cc(C[*:1])cc(C[*:2])c1; X47 = O=C(O)CCCCC(N[*:1])C(=O)[*:2]; Glutaryl = O=C(CCCC(=O)[*:2])[*:1]; X39 = c1cc(CCSCN[*:2])cc(C[*:1])c1; X54 = c1cc2ccc(C[*:2])cc2cc1C[*:1]; aThr = C[C@H](O)[C@H](N)C(=O)O; αMeP = C[C@@]1(C(=O)O)CCCN1; NMeS = CN[C@@H](CO)C(=O)O; Nva = CCC[C@H](N)C(=O)O; Mpa = O=C(O)CCS
readout-label: pIC50

compound	readout-label	result
COc1ccc(C[C@@H]2NC(=O)[C@H](Cc3cnc[nH]3)NC(=O)[C@H](CC(=O)O)NC(=O)[C@H](Cc3c[nH]c4ccc(F)cc34)NC(=O)[C@H](Cc3c[nH]c4ccc(F)cc34)NC(=O)[C@H](C)NC(=O)[C@H](NC(C)=O)CCCc3cn(nn3)-c3ccc(cc3)C[C@@H](C(N)=O)NC(=O)[C@]3(C)CCCN3C2=O)cc1	pIC50	4.30 to 4.68
COc1ccc(C[C@@H]2NC(=O)[C@H](C)NC(=O)[C@@H]3CCCCNc4cc(ccn4)C[C@H](NC(=O)[C@@H](C)NC(=O)[C@H](C)NC(=O)CCSCc4cccc(c4)CSC[C@@H](C(N)=O)NC(=O)[C@]4(C)CCCN4C2=O)C(=O)N[C@@H](Cc2c[nH]c4ccc(F)cc24)C(=O)N3)cc1	pIC50	7.00 to 10.00
C[C@@H]1NC(=O)CCCC(=O)NCc2ccc(cc2)C[C@@H](C(N)=O)NC(=O)[C@]2(C)CCCN2C(=O)[C@H](Cc2ccc(O)cc2)NC(=O)[C@H](Cc2cnc[nH]2)NC(=O)[C@H](CC(=O)O)NC(=O)[C@H](Cc2c[nH]c3ccc(F)cc23)NC(=O)[C@H](Cc2c[nH]c3ccc(F)cc23)NC(=O)CNC1=O [Compound 366] (AG[Trp(5-F)][Trp(5-F)]DHY[αMeP][Phe(4-CH2NH2)]-NH2; linker N-9 via Glutaryl)	pIC50	7.00 to 10.00
C[C@@H]1NC(=O)CCCCc2ccc(cc2)CCCCNC(=O)C[C@@H](C(=O)N[C@@H](Cc2cnc[nH]2)C(=O)N[C@@H](Cc2ccc(O)cc2)C(=O)N2CCC[C@H]2C(N)=O)NC(=O)[C@H](Cc2c[nH]c3ccc(F)cc23)NC(=O)[C@H](Cc2c[nH]c3ccc(F)cc23)NC(=O)CNC1=O [Compound 330] ([X19]AG[Trp(5-F)][Trp(5-F)]DHYP-NH2; lactam N-6)	pIC50	6.00 to 7.00
CO[C@@H](C)[C@@H]1NC(=O)[C@@H]2CCCN2C(=O)[C@H](Cc2c[nH]c3ccc(F)cc23)NC(=O)[C@H](Cc2c[nH]c3ccc(F)cc23)NC(=O)[C@@H](C)NC(=O)[C@H](CCCCN)NC(=O)CCSCc2cccc(c2)CSC[C@@H](C(N)=O)NC(=O)[C@]2(C)CCCN2C(=O)[C@H](Cc2ccc(O)cc2)NC1=O [Compound 053] ([Mpa]K[dA][Trp(5-F)][Trp(5-F)]P[aThr](Me)Y[αMeP]C-NH2; linker 1-10 via mXylylene)	pIC50	4.92 to 6.00

I'm hoping you can list pIC50 for every compound here, please.
1. COc1ccc(C[C@@H]2NC(=O)C(CCCCC(=O)O)NC(=O)[C@@H]3C[C@H](N)CN3C(=O)[C@H](Cc3c[nH]c4ccc(F)cc34)NC(=O)[C@H](Cc3c[nH]c4ccc(F)cc34)NC(=O)[C@@H](C)NC(=O)[C@H](CCCN=[N+]=[N-])NC(=O)CCSCc3cccc(c3)CCSCNC(=O)[C@]3(C)CCCN3C2=O)cc1 (stereo partly drawn) [Compound 388] ([Mpa][Orn(N3)][dA][Trp(5-F)][Trp(5-F)][Pro(4S-NH2)][X47]Y(Me)[αMeP]; linker 1-C via X39)
2. CC(C)C[C@H]1NC(=O)[C@H](CCCCN)NC(=O)CCSCc2cccc(c2)CSC[C@@H](C(N)=O)NC(=O)[C@]2(C)CCCN2C(=O)[C@H](Cc2ccc(O)cc2)NC(=O)[C@H](Cc2cnc[nH]2)NC(=O)[C@H](CC(=O)O)NC(=O)[C@H](Cc2c[nH]c3ccc(F)cc23)NC(=O)[C@H](Cc2c[nH]c3ccc(F)cc23)NC1=O [Compound 373] ([Mpa]K[dL][Trp(5-F)][Trp(5-F)]DHY[αMeP]C-NH2; linker 1-10 via mXylylene)
3. NCCCC[C@@H]1NC(=O)CCSCc2ccc3ccc(cc3c2)CSC[C@@H](C(N)=O)NC(=O)[C@@H]2CCCN2C(=O)[C@H](Cc2ccc(O)cc2)NC(=O)[C@H](Cc2c[nH]cn2)NC(=O)[C@H](CC(=O)O)NC(=O)[C@H](Cc2c[nH]c3ccc(F)cc23)NC(=O)[C@H](Cc2c[nH]c3ccc(F)cc23)NC(=O)CNC1=O [Compound 206] ([Mpa]KG[Trp(5-F)][Trp(5-F)]DHYPC-NH2; linker 1-10 via X54)
4. CCC[C@H](NC(C)=O)C(=O)N(C)[C@@H](CO)C(=O)N[C@@H](CCCCN)C(=O)N[C@H]1CSCc2cccc(c2)CSC[C@@H](C(N)=O)NC(=O)[C@@H]2CCCN2C(=O)[C@H](Cc2ccc(O)cc2)NC(=O)[C@H](Cc2c[nH]cn2)NC(=O)[C@H](CC(=O)O)NC(=O)[C@H](Cc2c[nH]c3ccc(F)cc23)NC(=O)[C@H](Cc2c[nH]c3ccc(F)cc23)NC(=O)CNC(=O)[C@H](CCCCN)NC1=O [Compound 145] (Ac-[Nva][NMeS]KCKG[Trp(5-F)][Trp(5-F)]DHYPC-NH2; linker 4-13 via mXylylene)
5. COc1ccc(C[C@@H]2NC(=O)[C@H](Cc3cnc[nH]3)NC(=O)[C@H](CC(=O)O)NC(=O)[C@H](Cc3c[nH]c4ccc(F)cc34)NC(=O)[C@H](Cc3c[nH]c4ccc(F)cc34)NC(=O)[C@@H](C)NC(=O)CCCCSc3c(F)c(F)c(c(F)c3F)SCCNC(=O)[C@]3(C)CCCN3C2=O)cc1 [Compound 483] (cyclo(DHY(Me)[αMeP][X24][dA][Trp(5-F)][Trp(5-F)]))

1: 7.00 to 10.00; 2: 7.00 to 10.00; 3: 4.30 to 4.68; 4: 4.92 to 6.00; 5: 7.00 to 10.00

// provenance: patent US11530244B2
